Reference for the values: paper PMC11351453

Test system: A549 cells
Experiment notes: cells
Assay type: cell-based
Setup conditions: Homo sapiens, A549, 72 h, read-out: IC50 A549
Metric name: IC50
Units required after the number.

Returns the measured IC50 for the input compound. Input: C=CC(=O)Nc1cc(Nc2nccc(-c3cn(C)c4ccccc34)n2)c(OC)cc1N(C)CCN(C)C
4.95 µM
